Biological target: K-Ras G13C (Homo sapiens (Human), UniProt P01116+P62937, G13C)
Sequence (P01116-2 other isoform, or with tags, fused parts or gaps G13C): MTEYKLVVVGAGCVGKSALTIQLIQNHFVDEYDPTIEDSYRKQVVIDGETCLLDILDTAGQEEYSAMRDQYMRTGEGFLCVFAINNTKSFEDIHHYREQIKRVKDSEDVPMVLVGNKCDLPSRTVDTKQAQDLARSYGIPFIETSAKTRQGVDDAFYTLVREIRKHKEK
Sequence (P62937 whole entry): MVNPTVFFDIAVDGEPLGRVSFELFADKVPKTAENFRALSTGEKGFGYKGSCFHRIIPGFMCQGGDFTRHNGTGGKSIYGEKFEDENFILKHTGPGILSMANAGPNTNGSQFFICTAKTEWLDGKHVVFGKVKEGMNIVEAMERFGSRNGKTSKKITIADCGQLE
Assay: Ras-Raf (BRAF RBD) disruption / FRET / MOA assay, KRAS G13C
Assay type: biochemical
Conditions: KRAS G13C; Ras-Raf disruption/FRET/MOA assay; read-out: IC50* KRAS G13C FRET data
observable: IC50

{"columns": ["molecule", "result"],
 "data": [
  ["C=CC(=O)N(C)[C@@H]1CCN(C(=O)N(C)[C@H](C(=O)N[C@H]2Cc3nc(cs3)-c3ccc4c(c3)c(c(-c3cccnc3[C@H](C)OC)n4CC)CC(C)(C)COC(=O)[C@@H]3CCCN(N3)C2=O)C(C)C)C1 (atropisomer, axis not shown) [Example A416]", "0.1 to 1 µM"],
  ["CCn1c(-c2cccnc2COC)c2c3cc(ccc31)-c1cc(O)cc(c1)C[C@H](NC(=O)[C@@H](C(C)C)N(C)C(=O)[C@H]1CCN(C(=O)C#CCN3CCOCC3)C1)C(=O)N1CCC[C@H](N1)C(=O)OCC(C)(C)C2 [Example A200]", "1 to 10 µM"],
  ["C=CC(=O)N1CC[C@H](C(=O)N(C)[C@H](C(=O)N[C@H]2Cc3cccc(c3)-c3ccc4c(c3)c(c(-c3cc(C5CCN(C)CC5)cnc3[C@H](C)OC)n4CC)CC(C)(C)COC(=O)[C@@H]3CCCN(N3)C2=O)C(C)C)C1 (atropisomer, axis not shown) [Example A516]", "1 to 10 µM"],
  ["CCn1c(-c2cccnc2COC)c2c3cc(ccc31)-c1cc(O)cc(c1)C[C@H](NC(=O)[C@H](C(C)C)N(C)C(=O)c1ccc(NC(=O)/C=C/CN(C)C)cn1)C(=O)N1CCC[C@H](N1)C(=O)OCC(C)(C)C2 [Example A067]", "0.01 to 0.1 µM"]
]}

* * *

Molecular target: K-Ras G12C (Homo sapiens (Human), UniProt P01116+P62937, G12C)
Sequence (P01116-2 other isoform, or with tags, fused parts or gaps G12C, one chain of several): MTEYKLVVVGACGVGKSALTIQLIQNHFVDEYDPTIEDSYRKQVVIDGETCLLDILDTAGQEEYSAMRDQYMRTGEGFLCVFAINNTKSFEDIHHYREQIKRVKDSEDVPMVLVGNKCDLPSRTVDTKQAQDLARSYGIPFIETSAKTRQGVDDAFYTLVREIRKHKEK
Assay: Ras-Raf (BRAF RBD) disruption / FRET / MOA assay, KRAS G12C
Assay type: biochemical
Conditions: KRAS G12C; Ras-Raf disruption/FRET/MOA assay; read-out: IC50* KRAS G12C FRET data
pIC50: −log10 of the molar value.
Reported pIC50 by item:
observable: pIC50

{"columns": ["compound", "result"],
 "data": [
  ["CCn1c(-c2cccnc2[C@H](C)OC)c2c3cc(ccc31)-c1cccc(c1)C[C@H](NC(=O)[C@H](C(C)C)N(C)C(=O)[C@H]1CCN(C(=O)C#C[C@]3(C)CCCN3C)C1)C(=O)N1CCC[C@H](N1)C(=O)OCC(C)(C)C2", "> 8.00"],
  ["C=CC(=O)N1CC[C@H](C(=O)N(C)[C@H](C(=O)NN2Cc3cc(O)cc(c3)-c3ccc4c(c3)c(c(-c3cccnc3[C@H](C)OC)n4CC)CC(C)(C)COC(=O)[C@@H]3CCCN(N3)C2=O)C(C)C)C1 (atropisomer, axis not shown)", "7.00 to 8.00"],
  ["CCn1c(-c2cccnc2[C@H](C)OC)c2c3cc(ccc31)-c1cc(O)cc(c1)C[C@H](NC(=O)[C@H](C(C)C)N(C)C(=O)[C@H]1CCN(C(=O)C#CC(C)(C)N(C)C)C1)C(=O)N1CCC[C@H](N1)C(=O)OCC(C)(C)C2 (atropisomer, axis not shown)", "> 8.00"],
  ["CCn1c(-c2cccnc2COC)c2c3cc(ccc31)-c1cc(O)cc(c1)C[C@H](NC(=O)[C@H](C(C)C)N(C)C(=O)[C@H]1CCN(C(=O)/C=C/CN3CCOCC3)C1)C(=O)N1CCC[C@H](N1)C(=O)OCC(C)(C)C2", "7.00 to 8.00"],
  ["C=CC(=O)N1CC[C@H](C(=O)N(C)[C@H](C(=O)N[C@H]2Cc3cc(O)cc(c3)-c3ccc4c(c3)c(c(-c3ccccc3CCN3CCCC3)n4CC)CC(C)(C)COC(=O)[C@@H]3CCCN(N3)C2=O)C(C)C)C1", "5.00 to 6.00"],
  ["CO[C@@H](C)c1ncccc1-c1c2c3cc(ccc3n1CC(F)(F)F)-c1cc(F)cc(c1)C[C@H](NC(=O)[C@@H](COC1CN(C(=O)C#CC(C)(C)N(C)C)C1)C(C)C)C(=O)N1CCC[C@H](N1)C(=O)OCC(C)(C)C2 (atropisomer, axis not shown)", "> 8.00"],
  ["C=CC(=O)N1C[C@H](C)N(C(=O)N(C)[C@H](C(=O)N[C@H]2Cc3nc(cs3)-c3ccc4c(c3)c(c(-c3cccnc3[C@H](C)OC)n4CC)CC(C)(C)COC(=O)[C@@H]3CCCN(N3)C2=O)C(C)C)C[C@@H]1C (atropisomer, axis not shown)", "7.00 to 8.00"],
  ["CCn1c(-c2cccnc2[C@H](C)OC)c2c3cc(ccc31)-c1csc(n1)C[C@H](NC(=O)[C@H](C(C)C)N1CCC3(CN(C(=O)C#CC(C)(C)N(C)C)C3)C1=O)C(=O)N1CCC[C@H](N1)C(=O)OCC(C)(C)C2 (atropisomer, axis not shown)", "> 8.00"],
  ["CO[C@@H](C)c1ncccc1-c1c2c3cc(ccc3n1CC(F)(F)F)-c1cc(CF)cc(c1)C[C@H](NC(=O)[C@@H](COC1CN(C(=O)C#CC(C)(C)N(C)C)C1)C(C)C)C(=O)N1CCC[C@H](N1)C(=O)OCC(C)(C)C2 (atropisomer, axis not shown)", "7.00 to 8.00"],
  ["C=CC(=O)N1CCC(F)(C(=O)N(C)[C@H](C(=O)N[C@H]2C[C@H]3CN(CCO3)c3ccc4c(c3)c(c(-c3cccnc3[C@H](C)OC)n4CC)CC(C)(C)COC(=O)[C@@H]3CCCN(N3)C2=O)C(C)C)CC1 (atropisomer, axis not shown)", "7.00 to 8.00"],
  ["C=CC(=O)N1CC[C@H](C(=O)N(C)[C@H](C(=O)N[C@H]2Cc3cccc(c3)-c3ccc4c(c3)c(c(-c3cnn(C5CCN(C)CC5)c3[C@H](C)OC)n4CC)CC(C)(C)COC(=O)[C@@H]3CCCN(N3)C2=O)C(C)C)C1", "< 5.00"],
  ["CCn1c(-c2cccnc2[C@H](C)OC)c2c3cc(ccc31)-c1csc(n1)C[C@H](NC(=O)[C@H](C(C)C)N1CC[C@]3(CCN(C(=O)C#CC(C)(C)N(C)C)C3)C1=O)C(=O)N1CCC[C@H](N1)C(=O)OCC(C)(C)C2 (atropisomer, axis not shown)", "> 8.00"],
  ["C=CC(=O)N1CC[C@@H](C(=O)N(C)[C@H](C(=O)N[C@H]2Cc3cc(O)cc(c3)-c3ccc4c(c3)c(c(-c3cncnc3)n4CC)CC(C)(C)COC(=O)[C@@H]3CCCN(N3)C2=O)C(C)C)O1", "7.00 to 8.00"],
  ["C=CC(=O)N1CC[C@H](C(=O)N(C)[C@H](C(=O)N[C@H]2Cc3nc(cs3)-c3ccc4c(c3)c(c(-c3cc(C5=CCN(C)CC5)cnc3[C@H](C)OC)n4CC)CC(C)(C)COC(=O)[C@@H]3CCCN(N3)C2=O)C(C)C)C1 (atropisomer, axis not shown) [Example A520]", "6.00 to 7.00"],
  ["C=CC(=O)N1CC2(CCN2C(=O)N(C)[C@H](C(=O)N[C@H]2Cc3cccc(c3)-c3ccc4c(c3)c(c(-c3cccnc3[C@H](C)OC)n4CC)CC(C)(C)COC(=O)[C@@H]3CCCN(N3)C2=O)C(C)C)C1 (atropisomer, axis not shown)", "> 8.00"]
]}
